target: PIK3CB (Human)
pKi: −log10 of the molar value.
measured.endpoint: pKi

>>> observed_value("COC1(c2sc3c(N4CCOCC4)nc(-c4cnc(N)nc4)nc3c2C)COC1")
7.57
>>> observed_value("COC(C)(C)c1cc2nc(-c3cnc(N)nc3)nc(N3CCOCC3)c2s1")
7.68

----------
target: PIK3CG (human) (UniProt P48736)
Sequence (P48736 whole entry, looked up): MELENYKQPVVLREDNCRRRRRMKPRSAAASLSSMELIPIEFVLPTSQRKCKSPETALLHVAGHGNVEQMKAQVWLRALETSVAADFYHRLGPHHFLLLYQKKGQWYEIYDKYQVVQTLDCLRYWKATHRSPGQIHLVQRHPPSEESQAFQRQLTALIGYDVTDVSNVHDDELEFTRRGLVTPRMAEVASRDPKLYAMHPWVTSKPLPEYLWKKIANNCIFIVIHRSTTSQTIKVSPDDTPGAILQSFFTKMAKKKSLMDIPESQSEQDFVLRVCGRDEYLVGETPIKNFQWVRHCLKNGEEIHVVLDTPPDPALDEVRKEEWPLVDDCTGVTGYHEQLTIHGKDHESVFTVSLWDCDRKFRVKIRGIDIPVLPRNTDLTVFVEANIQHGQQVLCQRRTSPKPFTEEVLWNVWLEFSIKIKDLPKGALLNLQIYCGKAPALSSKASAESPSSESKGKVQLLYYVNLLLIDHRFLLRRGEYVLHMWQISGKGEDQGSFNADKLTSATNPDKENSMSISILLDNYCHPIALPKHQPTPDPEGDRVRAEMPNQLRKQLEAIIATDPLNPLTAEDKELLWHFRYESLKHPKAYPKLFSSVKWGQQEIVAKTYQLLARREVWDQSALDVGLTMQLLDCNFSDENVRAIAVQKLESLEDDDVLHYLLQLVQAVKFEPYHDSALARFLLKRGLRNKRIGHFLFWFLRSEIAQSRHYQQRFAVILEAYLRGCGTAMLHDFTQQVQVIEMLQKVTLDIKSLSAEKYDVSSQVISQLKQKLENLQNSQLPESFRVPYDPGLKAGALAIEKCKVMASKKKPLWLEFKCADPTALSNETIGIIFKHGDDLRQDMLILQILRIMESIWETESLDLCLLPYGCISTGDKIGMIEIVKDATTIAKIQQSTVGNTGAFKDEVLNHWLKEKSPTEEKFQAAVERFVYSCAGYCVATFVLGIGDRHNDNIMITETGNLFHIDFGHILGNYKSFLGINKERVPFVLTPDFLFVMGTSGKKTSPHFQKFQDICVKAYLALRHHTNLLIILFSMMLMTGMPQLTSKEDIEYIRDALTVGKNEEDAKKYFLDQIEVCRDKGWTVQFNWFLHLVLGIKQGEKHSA
pKi: −log10 of the molar value.
measured.endpoint: pKi

>>> observed_value("COC(C)(C)c1cc2nc(-c3cnc(N)nc3)nc(N3CCOCC3)c2s1")
8.40
>>> observed_value("CC1(C)OCCc2c1sc1c(N3CCOCC3)nc(-c3cnc(N)nc3)nc21")
8.52
